test system: Trichophyton mentagrophytes; experiment: Antimycotic activity against Trichophyton mentagrophytes ATCC 28185 after 72 hrs; format: functional; settings: ATCC 28185, 72 h
reported property: MIC
Answer with the value and then the unit.

Field: example entries. Status: answers known.
# smiles input, MIC
measured = [
    ("C[C@H]1CC[C@@]2(OC1)O[C@H]1C[C@H]3[C@@H]4C[C@H](O[C@@H]5O[C@H](C)[C@@H](O)[C@H](O[C@@H]6OC[C@@H](O)[C@H](O)[C@H]6O)[C@H]5O)[C@H]5C[C@@H](O)CC[C@]5(C)[C@H]4CC[C@]3(C)[C@H]1[C@@H]2C", "25 µg/mL"),
    ("C[C@@H]1CO[C@@]2(O[C@H]3C[C@H]4[C@@H]5C[C@H](O[C@@H]6O[C@H](C)[C@@H](O)[C@H](O[C@@H]7OC[C@@H](O)[C@H](O)[C@H]7O)[C@H]6O)[C@H]6C[C@@H](O)CC[C@]6(C)[C@H]5CC[C@]4(C)[C@H]3[C@@H]2C)[C@H](O)C1", "100 µg/mL"),
]

Entry `C[C@@H]1CO[C@@]2(O[C@H]3C[C@H]4[C@@H]5C[C@H](O[C@@H]6O[C@H](C)[C@@H](O)[C@H](O[C@@H]7OC[C@@H](O)[C@H](O)[C@H]7O)[C@H]6O)[C@H]6C[C@@H](O)CC[C@]6(C)[C@H]5CC[C@]4(C)[C@H]3[C@@H]2C)[C@@H](O)C1` , MIC reported as 25 µg/mL

====

test system: Trichophyton mentagrophytes; assay: Antimycotic activity against Trichophyton mentagrophytes ATCC 28185 after 72 hrs; type: functional; settings: ATCC 28185, 72 h
reported property: log10 of MIC (log10 of the value in µg/mL)
// do not treat as linear: log10 of MIC, unit µg/mL

For each of the compounds below, note its log10 of MIC.
1. C[C@H]1CO[C@@]2(O[C@H]3C[C@H]4[C@@H]5C[C@H](O[C@@H]6O[C@H](C)[C@@H](O)[C@H](O[C@@H]7O[C@H](C)[C@@H](O)[C@H](O)[C@@H]7O)[C@H]6O)[C@H]6C[C@@H](O)CC[C@]6(C)[C@H]5CC[C@]4(C)[C@H]3[C@@H]2C)[C@@H](O)C1
2. C[C@@H]1CC[C@@]2(OC1)O[C@H]1C[C@H]3[C@@H]4C[C@H](O[C@@H]5O[C@H](C)[C@@H](O)[C@H](O[C@@H]6OC[C@@H](O)[C@H](O)[C@H]6O)[C@H]5O)[C@H]5C[C@@H](O)CC[C@]5(C)[C@H]4CC[C@]3(C)[C@H]1[C@@H]2C
3. C[C@@H]1CC[C@@]2(OC1)O[C@H]1C[C@H]3[C@@H]4C[C@H](O[C@@H]5O[C@H](C)[C@@H](O)[C@H](O[C@@H]6O[C@H](C)[C@@H](O)[C@H](O)[C@@H]6O)[C@H]5O)[C@H]5C[C@@H](O)CC[C@]5(C)[C@H]4CC[C@]3(C)[C@H]1[C@@H]2C
4. C[C@@H]1CC[C@@]2(OC1)O[C@H]1C[C@H]3[C@@H]4C[C@H](O[C@@H]5O[C@H](C)[C@@H](O)[C@H](O)[C@H]5O)[C@H]5C[C@@H](O)CC[C@]5(C)[C@H]4CC[C@]3(C)[C@H]1[C@@H]2C
5. C[C@@H]1CC[C@@]2(OC1)O[C@H]1C[C@H]3[C@@H]4C[C@H](O[C@@H]5OC[C@@H](O)[C@H](O)[C@H]5O)[C@H]5C[C@@H](O)CC[C@]5(C)[C@H]4CC[C@]3(C)[C@H]1[C@@H]2C
6. Clc1ccc(COC(Cn2ccnc2)c2ccc(Cl)cc2Cl)c(Cl)c1 (configuration not stated) [MICONAZOLE]

Reply:
[2.30, 1.10, 2.30, 1.40, 2.00, 0.60]

Fill in: Trichophyton mentagrophytes log10 of MIC for `C[C@H]1CC[C@@]2(OC1)O[C@H]1C[C@H]3[C@@H]4C[C@H](O[C@@H]5O[C@H](C)[C@@H](O)[C@H](O)[C@H]5O)[C@H]5C[C@@H](O)CC[C@]5(C)[C@H]4CC[C@]3(C)[C@H]1[C@@H]2C` = 1.40

====

tested on: Candida albicans; experiment: Antimycotic activity against Candida albicans ATCC 10231 after 24 hrs; conditions: ATCC 10231, 24 h
Record form. Attribute: MIC. Fill in for each entry.
Numbers only, in µg/mL.

# smiles input, MIC / µg/mL
records = [
    ("C[C@@H]1CC[C@@]2(OC1)O[C@H]1C[C@H]3[C@@H]4C[C@H](O[C@@H]5O[C@H](C)[C@@H](O)[C@H](O[C@@H]6OC[C@@H](O)[C@H](O)[C@H]6O)[C@H]5O)[C@H]5C[C@@H](O)CC[C@]5(C)[C@H]4CC[C@]3(C)[C@H]1[C@@H]2C", 200),
    ("C[C@@H]1CC[C@@]2(OC1)O[C@H]1C[C@H]3[C@@H]4C[C@H](O[C@@H]5O[C@H](C)[C@@H](O)[C@H](O[C@@H]6O[C@H](C)[C@@H](O)[C@H](O)[C@@H]6O)[C@H]5O)[C@H]5C[C@@H](O)CC[C@]5(C)[C@H]4CC[C@]3(C)[C@H]1[C@@H]2C", 200),
    ("C[C@@H]1CC[C@@]2(OC1)O[C@H]1C[C@H]3[C@@H]4C[C@H](O[C@@H]5O[C@H](C)[C@@H](O)[C@H](O)[C@H]5O)[C@H]5C[C@@H](O)CC[C@]5(C)[C@H]4CC[C@]3(C)[C@H]1[C@@H]2C", 200),
    ("C[C@@H]1CC[C@@]2(OC1)O[C@H]1C[C@H]3[C@@H]4C[C@H](O[C@@H]5OC[C@@H](O)[C@H](O)[C@H]5O)[C@H]5C[C@@H](O)CC[C@]5(C)[C@H]4CC[C@]3(C)[C@H]1[C@@H]2C", 200),
]

Next:
Entry `C[C@H]1CO[C@@]2(O[C@H]3C[C@H]4[C@@H]5C[C@H](O[C@@H]6O[C@H](C)[C@@H](O)[C@H](O[C@@H]7O[C@H](C)[C@@H](O)[C@H](O)[C@@H]7O)[C@H]6O)[C@H]6C[C@@H](O)CC[C@]6(C)[C@H]5CC[C@]4(C)[C@H]3[C@@H]2C)[C@@H](O)C1` , MIC reported as 200
